Can you tell me phenotypic distance for the items I'm about to list?
Test system: E13 (patient-derived glioblastoma stem cells of classical subtype);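 further: cell Painting imaging in 384-well plates, CellProfiler features reduced to at least 20 principal components, Euclidean distance versus same-plate DMSO vehicle wells (0.1% v/v), median over six images per well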
Assay: phenotypic distance (Euclidean, principal components) from DMSO controls (arbitrary units); higher = stronger morphological change
Conditions: 111.1111111 nM; exposure time: 72 h
Structures can show the parent of a compound that is named as a salt.
Give bare numbers.

C[C@@H](O)[C@H]1C(=O)N2C(C(=O)O)=C(S[C@@H]3CN[C@H](C(=O)N(C)C)C3)[C@H](C)[C@H]12; 0.343
COC(=O)[C@@H]1[C@H]2C[C@H]3c4[nH]c5ccccc5c4CCN3C[C@@H]2CC[C@@H]1O [Yohimbine hydrochloride]; 0.517
CC(C)C[C@H](NC(=O)[C@H](Cc1ccccc1)NC(=O)c1cnccn1)B(O)O; 12
Cc1[nH]nc(C(F)(F)F)c1Cc1sc2c(c1C(=O)N1C[C@](C)(O)CO1)c(=O)n(C)c(=O)n2C(C)C; 1.42

### Prompt # get_value(readout='phenotypic distance', item= "Cc1cc(C)c(CN2CCc3c(Cl)cc(-c4c(C)noc4C)c(Cl)c3C2=O)c(=O)[nH]1" )
### Response 0.586
